Below are MIC values recorded for Escherichia coli TEM.
Please state the figure in µg/mL; there is no need to write the unit.

# input What value of MIC on Escherichia coli TEM does CNC1C(OC2OC(CO)C(N)C(O)C2O)OC2CC(N)C(OC3C(N)CC(NC(=O)CN)C(O)C3O)OC2C1O (stereo not shown) have?
# output 32

# input What value of MIC on Escherichia coli TEM does NCC[C@H](O)C(=O)N[C@@H]1C[C@H](N)[C@@H](O[C@H]2O[C@H](CN)[C@@H](O)C[C@H]2N)[C@H](O)[C@H]1O have?
# output 2

# input What value of MIC on Escherichia coli TEM does CNC1C(OC2OC(CO)C(N)C(O)C2O)OC2CC(N)C(OC3C(N)CC(NC(=O)C(O)CCN)C(O)C3O)OC2C1O (stereo not shown) have?
# output 4

# input What value of MIC on Escherichia coli TEM does CCNC1CC(N)C(OC2OC3C(CC2N)OC(OC2OC(CO)C(N)C(O)C2O)C(NC)C3O)C(O)C1O (stereo not shown) have?
# output 8
